Tested on: lysine peptide Ac-RFAAKAA-COOH
Assay explanation: efficacy of lysine peptide change (negative = depletion) (% activity); higher = less depletion
Experimental parameters: incubation time: 24 h
Structures can show the parent of a compound that is named as a salt.
Endpoint name: efficacy of lysine peptide change

CO[C@@H]1[C@H](OC(=O)/C=C/C=C/C=C/C=C/C(=O)O)CC[C@]2(CO2)[C@H]1[C@@]1(C)O[C@@H]1CC=C(C)C    19.2
CCN(CC)CCSC(=O)C(c1ccccc1)c1ccccc1    17.2
COc1ccc(O)c(C(C)(C)C)c1    5.8
COC(=O)Nc1nc2ccc(C(=O)C3CC3)cc2[nH]1    -14
Clc1ccccc1-c1nc(-c2ccncc2)no1 [Pifexole]    10.5
N#CCC#N    8.33
C/C=C/C=C/C=O    -110
O=C1C=CC(=O)c2ccccc21    -25.7
Nc1ccc2cc3ccc(N)cc3nc2c1 [Proflavin hemisulfate#]    115
CC(C)=CC1C(C(=O)OCc2coc(Cc3ccccc3)c2)C1(C)C (stereo unspecified)    -58
Oc1ccc(/C=C/c2cc(O)cc(O)c2)cc1    -22.5
O=C(NS(=O)(=O)/C=C/c1ccccc1)c1ccc(F)cc1Cl    67
Nc1cc(Cl)ccc1O    -22.2
COP(=S)(OC)Oc1ccc(SC)c(C)c1    2.04
CCCCCCCCCCCCO    -9.21
Cn1sccc1=O [2-Methyl-4-isothiazolin-3-one hydrochloride]    -0.97
c1ccc(Nc2ccc(Nc3ccccc3)cc2)cc1    -22.2
O=[N+]([O-])c1ccc(O/N=C/c2cc(Br)c(O)c(Br)c2)c([N+](=O)[O-])c1    62.9
C=CC(=O)OCCn1c(=O)n(CCOC(=O)C=C)c(=O)n(CCOC(=O)C=C)c1=O    -0.37
Oc1c(I)cc(Cl)c2cccnc12    -8.28
O=C(CS)Nc1ccccc1 [Thioglycolic acid anilide]    28

---

System: cysteine peptide Ac-RFAACAA-COOH
Assay explanation: efficacy of cysteine peptide change (negative = depletion) (% activity); higher = less depletion
Experimental parameters: incubation time: 24 h
Counter-ions that a name gives are not always drawn.
Label rule not met if efficacy of cysteine peptide change falls below -30; label rule met in every other case.

CCOC(=O)CC(SP(=S)(OC)OC)C(=O)OCC (stereo not given)    rule not met
c1ccc2sc(SNC3CCCCC3)nc2c1 [N-Cyclohexyl-2-benzothiazolesulfenamide]    rule not met
O=CC(=O)c1ccccc1    rule met
COC(=O)Nc1nc2cc(Sc3ccccc3)ccc2[nH]1    rule met
O=C1OC(CCN2CCCCC2)OC1(c1ccccc1)c1ccccc1 (stereo not given) [Pipoxolan hydrochloride]    rule not met

---

Test system: lysine peptide Ac-RFAAKAA-COOH
Assay explanation: efficacy of lysine peptide change (negative = depletion) (% activity); higher = less depletion
Experimental parameters: incubation time: 24 h
Label F if efficacy of lysine peptide change falls below -30; label T in every other case.

O=[N+]([O-])c1cc(Cl)c(Cl)c(Cl)c1Cl [2,3,4,5-Tetrachloronitrobenzene]    T
CC(C)(C)c1cc(O)c(C(C)(C)C)cc1O [2,5-Di-tert-butylbenzene-1,4-diol]    T
C=CC(=O)OCC(COC(=O)C=C)(COC(=O)C=C)COC(=O)C=C [Pentaerythritol tetraacrylate]    T
CC1COc2ccccc2N1C(=O)C(Cl)Cl (centres undefined) [Benoxacor]    T
CC(C)CP(=S)(S)CC(C)C [Sodium bis(2-methylpropyl)phosphinodithioate]    T
Sc1nc2ccccc2s1 [2-Mercaptobenzothiazole]    T
O=c1ssc(Cl)c1Cl [4,5-Dichloro-3H-1,2-dithiol-3-one]    F
O=C1c2cccc(O)c2C(=O)c2c(O)cc(CO)cc21 [Aloe-emodin]    F
CC(C)C[C@H](NC(=O)[C@H](Cc1ccccc1)NC(=O)c1cnccn1)B(O)O [Bortezomib]    F

---

System: cysteine peptide Ac-RFAACAA-COOH
Assay explanation: efficacy of cysteine peptide change (negative = depletion) (% activity); higher = less depletion
Experimental parameters: incubation time: 24 h
Below, each entry is listed with its recorded efficacy of cysteine peptide change.
Endpoint name: efficacy of cysteine peptide change

CC(C)NC(=O)c1ccc(C=O)cc1 [N-isopropyl-4-formylbenzamide]    -2.83
CC(C)C[C@H](NC(=O)[C@H](Cc1ccccc1)NC(=O)c1cnccn1)B(O)O [Bortezomib]    8.93
Nc1ccc2cc3ccc(N)cc3nc2c1 [Proflavin hemisulfate#]    88.8
Cc1cccc(N(C)C(=S)Oc2ccc3c(c2)C2CCC3C2)c1 (centres undefined) [Tolciclate]    -30.8
CC(=O)C1(C)CC2=C(CCCC2(C)C)CC1C (centres undefined)    -16.5
CO[C@@]12[C@H](COC(N)=O)C3=C(C(=O)C(C)=C(N)C3=O)N1C[C@@H]1N[C@@H]12 [Mitomycin C]    -37
O=C1c2cccc(O)c2C(=O)c2c(O)cccc21 [Danthron]    -72.3
CC(C(=O)O)c1ccc(/C=C2\CCCCC2=O)cc1 (centres undefined) [Pelubiprofen]    -2.83
CC(C)Nc1ccc(Nc2ccccc2)cc1 [N-Isopropyl-N'-phenyl-p-phenylenediamine]    -67.5

---

Test system: lysine peptide Ac-RFAAKAA-COOH
Assay explanation: efficacy of lysine peptide change (negative = depletion) (% activity); higher = less depletion
Experimental parameters: incubation time: 24 h
Where a name gives a salt, the structure may show the parent alone.
Label not met if efficacy of lysine peptide change falls below 20; label met in every other case.

CCC1OCC(COc2ccc(Oc3ccccc3)cc2)O1 (centres undefined) [Diofenolan]    not met
Nc1ccc(-c2ccccc2)cc1 [4-Biphenylamine hydrochloride]    not met
NC(=O)n1c(O)c(C(=O)c2cccs2)c2cc(Cl)ccc21 [Tenidap*]    not met
O=CC(=O)c1ccccc1 [Phenyl glyoxal]    not met
c1ccc2c(c1)OCC(C1=NCCN1)O2 (centres undefined) [Idazoxan]    not met
CC(C)NC(=O)c1ccc(C=O)cc1 [N-isopropyl-4-formylbenzamide]    met
O=[N+]([O-])c1cc(C(F)(F)F)c(Cl)c([N+](=O)[O-])c1Cl [2,4-Dichloro-1,3-dinitro-5-(trifluoromethyl)benzene]    met
COC(=O)Nc1nc2cc([S+]([O-])c3ccccc3)ccc2[nH]1 (centres undefined) [Oxfendazole]    not met
Oc1ccc2cc(SSc3ccc4cc(O)ccc4c3)ccc2c1 [6-Hydroxy-2-naphthyl disulfide]    not met
CC(C)c1ccc2oc3nc(N)c(C(=O)O)cc3c(=O)c2c1 [Amlexanox]    not met
Nc1ncn([C@@H]2O[C@H](CO)[C@@H](O)[C@H]2O)c(=O)n1 [5-Azacytidine]    not met
C/C=C/C=C/CCCCCCCO [Codlelure]    met
COc1cc(/C=C2\CCC/C(=C\c3ccc(O)c(OC)c3)C2=O)ccc1O [Cyclovalone]    not met
O=C(Nc1cccc(Cl)c1)OCC#CCCl [Barban]    met
O=C(/C=C/C=C/c1ccc2c(c1)OCO2)N1CCCCC1 [Piperine]    not met
Nc1ccc([N+](=O)[O-])cc1N [4-Nitro-1,2-phenylenediamine]    not met
CCN(CC)CCOc1ccc2c(c1)C(=O)c1cc(OCCN(CC)CC)ccc1-2 [Tilorone]    met
O=[N+]([O-])c1ccc(Oc2ccc(C(F)(F)F)cc2[N+](=O)[O-])cc1 [Fluorodifen]    not met
O=C1Nc2ccccc2C1(c1ccc(O)cc1)c1ccc(O)cc1 [Oxyphenisatin]    met

---

Below, each entry is listed with its recorded efficacy of lysine peptide change.
Test system: lysine peptide Ac-RFAAKAA-COOH
Assay explanation: efficacy of lysine peptide change (negative = depletion) (% activity); higher = less depletion
Experimental parameters: incubation time: 24 h
Counter-ions that a name gives are not always drawn.
Endpoint name: efficacy of lysine peptide change

CC(=O)Oc1ccc(C(c2ccc(OC(C)=O)cc2)c2ccccn2)cc1    26.8
O=C1OC(CCN2CCCCC2)OC1(c1ccccc1)c1ccccc1 (centres undefined) [Pipoxolan hydrochloride]    -49.6
CN(C)c1ccc(SC#N)cc1 [4-(Dimethylamino)phenylthiocyanate]    1.57
O=C(N/N=C/c1ccccc1O)c1ccncc1    16.7
CC[C@@]1(O)C(=O)OCc2c1cc1n(c2=O)Cc2c-1nc1ccccc1c2/C=N/OC(C)(C)C    30.4
C=CCOC(Cn1ccnc1)c1ccc(Cl)cc1Cl (centres undefined) [Imazalil sulfate]    166
O=[N+]([O-])c1cc(N(CCO)CCO)ccc1NCCO    0
O=C(N/N=C/c1ccc([N+](=O)[O-])o1)c1cc([N+](=O)[O-])cc([N+](=O)[O-])c1O    -10.9
CC(C)(C)c1ccc(S)cc1    10.3

---

System: cysteine peptide Ac-RFAACAA-COOH
Assay explanation: efficacy of cysteine peptide change (negative = depletion) (% activity); higher = less depletion
Experimental parameters: incubation time: 24 h
Structures can show the parent of a compound that is named as a salt.
Please map values of efficacy of cysteine peptide change to classes as shown: low: < -90; mid: ≥ -90 and < 0; high: ≥ 0

CC(C)=CCC1=C(O)c2ccccc2C(=O)C1=O    high
C#CCN(C)CCCOc1ccc(Cl)cc1Cl [Clorgyline hydrochloride]    high
CC(C)OC(=S)S [Proxan-sodium]    low
CCOP(=S)(OCC)Oc1nc(Cl)c(Cl)cc1Cl    low
CC/C=C\C/C=C\C/C=C\CCCCCCCC(=O)OCC [Ethyl linolenate]    low
O=c1ssc(Cl)c1Cl    low
CC(C)CC(NC(=O)OCC1c2ccccc2-c2ccccc21)C(=O)O (stereo in doubt)    mid
O=C(/C=C/C=C/c1ccc2c(c1)OCO2)N1CCCCC1    mid
C=CC(=O)OCCCCCCOC(=O)C=C [1,6-Hexanediol diacrylate]    low
CCNc1nc(NC(C)(C)C)nc(SC)n1    high
c1cc(OCC2CO2)ccc1Cc1ccc(OCC2CO2)cc1 (stereo not given) [Bis[4-(glycidyloxy)phenyl]methane]    mid
c1ccc(CCNc2nc(-c3ccccc3)cs2)cc1    low
CCC(C)(c1ccc(O)cc1)c1ccc(O)cc1    high
CC(C)(C)OC(=O)c1ccc(O)cc1 [tert-Butyl 4-hydroxybenzoate]    mid
CCOCN(C(=O)CCl)c1c(C)cccc1CC    high

Data provenance is the supplement of paper PMC10933113.
